Source of measurements: patent US12024707B2

Test system: HT29 RAMS11 overexpressing cells
experiment_summary: High-throughput viability assay (resazurin), 119 FDA-approved anticancer drugs, RAMS11 overexpressing cells (Clone1, Clone2)
conditions_used: OE1 (RAMS11 overexpression clone 1), 0.1 uM drug, 72 h, vs empty vector control
Structures can show the parent of a compound that is named as a salt.
Where Viability Fold Change equals or exceeds 0.9, the correct label is 1; where it does not, the label is -1.

Quick check, Viability Fold Change >= 0.9? `C=C1C[C@@H]2[C@H](CC[C@]3(C)C(=O)CC[C@@H]23)[C@@]2(C)C=CC(=O)C=C12`
-1

Also check `CNC(=O)c1cc(Oc2ccc(NC(=O)Nc3ccc(Cl)c(C(F)(F)F)c3)cc2)ccn1`
-1

Please give the result for `S=c1nc[nH]c2nc[nH]c12` too.
1

What about `CC(C)C[C@H](NC(=O)[C@H](CCc1ccccc1)NC(=O)CN1CCOCC1)C(=O)N[C@@H](Cc1ccccc1)C(=O)N[C@@H](CC(C)C)C(=O)[C@@]1(C)CO1` ?
1

Same thing, different molecule: COc1cc2nccc(Oc3ccc(NC(=O)C4(C(=O)Nc5ccc(F)cc5)CC4)cc3)c2cc1OC [Cabozantinib]
1

And the next one, `Nc1nc(F)nc2c1ncn2[C@@H]1O[C@H](CO)[C@@H](O)[C@@H]1O` ?
-1

Further, for `CNNCc1ccc(C(=O)NC(C)C)cc1` ?
1

Moving on to Nc1ccn([C@@H]2O[C@H](CO)[C@@H](O)[C@@H]2O)c(=O)n1 [Cytarabine hydrochloride]
1

Again, but for `CN(C)/N=N/c1[nH]cnc1C(N)=O`
1

What do you have for `CCCCCOC(=O)Nc1nc(=O)n([C@@H]2O[C@H](C)[C@@H](O)[C@H]2O)cc1F` ?
1

Also need COc1cccc2c1C(=O)c1c(O)c3c(c(O)c1C2=O)C[C@@](O)(C(C)=O)C[C@@H]3O[C@H]1C[C@H](N)[C@H](O)[C@H](C)O1 [daunorubicin HCl, reference compound] , thanks.
1

Note, next up: `CC(C)Cn1cnc2c(N)nc3ccccc3c21`
1

---

Tested on: HT29 RAMS11 overexpressing cells
experiment_summary: High-throughput viability assay (resazurin), 119 FDA-approved anticancer drugs, RAMS11 overexpressing cells (Clone1, Clone2)
conditions_used: OE2 (RAMS11 overexpression clone 2), 10 uM drug, 72 h, vs empty vector control
Where a name gives a salt, the structure may show the parent alone.
For each record, write down the corresponding Viability Fold Change.
Note: the reply should be a number with no unit written.

# get_value(readout='Viability Fold Change', item= `C[C@]12CC[C@@H]3c4ccc(OC(=O)N(CCCl)CCCl)cc4CC[C@H]3[C@@H]1CC[C@@H]2O` )
1.025

Entry `Nc1ncn([C@@H]2O[C@H](CO)[C@@H](O)[C@H]2O)c(=O)n1` please
0.9049

Okay, and `O=C(/C=C/c1cccc(S(=O)(=O)Nc2ccccc2)c1)NO` ?
1.006

Entry to check: Cn1c(CCCC(=O)O)nc2cc(N(CCCl)CCCl)ccc21 [Bendamustine hydrochloride]
0.899

Moving on to `N#Cc1ccc(C(c2ccc(C#N)cc2)n2cncn2)cc1`
0.8412

Okay, and COc1cc([C@@H]2c3cc4c(cc3[C@@H](O[C@@H]3O[C@@H]5CO[C@@H](c6cccs6)O[C@H]5[C@H](O)[C@H]3O)[C@H]3COC(=O)[C@H]23)OCO4)cc(OC)c1O [Teniopside] ?
2.261

Cool, now COc1cc([C@@H]2c3cc4c(cc3C(O[C@@H]3O[C@@H]5CO[C@@H](C)O[C@H]5[C@H](O)[C@H]3O)C3COC(=O)[C@@H]32)OCO4)cc(OC)c1O (stereo partly shown) [Etopside]
1.196

---

System: HT29 RAMS11 overexpressing cells
experiment_summary: High-throughput viability assay (resazurin), 119 FDA-approved anticancer drugs, RAMS11 overexpressing cells (Clone1, Clone2)
conditions_used: OE1 (RAMS11 overexpression clone 1), 1 uM drug, 72 h, vs empty vector control
Where a name gives a salt, the structure may show the parent alone.
Param threshold (1) applies to Viability Fold Change; output 1 when value >= threshold, 0 when value < threshold.

Could you please find out whether Nc1ncn([C@@H]2O[C@H](CO)[C@@H](O)[C@H]2O)c(=O)n1 [Azacitidine] has Viability Fold Change that meets 1 or exceeds it?
1

Item: CNC(=O)c1cc(Oc2ccc(NC(=O)Nc3ccc(Cl)c(C(F)(F)F)c3)cc2)ccn1 [Sorafenib]
0

What do we get for Oc1ncnc2[nH]ncc12 [Allopurinol] ?
0

Proceed to CS(=O)(=O)OCCCCOS(C)(=O)=O [Busulfan]
0

Also check N.N.[Cl][Pt][Cl] [Cisplatin]
0

Do the same for COc1cc([C@@H]2c3cc4c(cc3C(O[C@@H]3O[C@@H]5CO[C@@H](C)O[C@H]5[C@H](O)[C@H]3O)C3COC(=O)[C@@H]32)OCO4)cc(OC)c1O (stereo partly shown) [Etopside] please
1

Param item: C#Cc1cccc(Nc2ncnc3cc(OCCOC)c(OCCOC)cc23)c1 [Erlotinib HCl]
1

Now give it for CC[C@H](Nc1ncnc2[nH]cnc12)c1nc2cccc(F)c2c(=O)n1-c1ccccc1 [Idelalisib] too.
0

Again, but for CC1=C(/C=C/C(C)=C/C=C/C(C)=C/C(=O)O)C(C)(C)CCC1 [Tretinoin]
1

---

Tested on: HT29 RAMS11 overexpressing cells
experiment_summary: High-throughput viability assay (resazurin), 119 FDA-approved anticancer drugs, RAMS11 overexpressing cells (Clone1, Clone2)
conditions_used: OE1 (RAMS11 overexpression clone 1), 1 uM drug, 72 h, vs empty vector control
Structures can show the parent of a compound that is named as a salt.
Assign condition met to entries whose Viability Fold Change meets or exceeds 1; assign condition not met to the rest.

Is the recorded value of Viability Fold Change equal to or greater than 1 for this molecule? `CS(=O)(=O)c1ccc(C(=O)Nc2ccc(Cl)c(-c3ccccn3)c2)c(Cl)c1`
condition not met

What do we get for `CO[C@@]12[C@H](COC(N)=O)C3=C(C(=O)C(C)=C(N)C3=O)N1C[C@@H]1N[C@@H]12` ?
condition met

// repeat for `CNNCc1ccc(C(=O)NC(C)C)cc1` and report
condition met

Also check `CN(C)c1nc(N(C)C)nc(N(C)C)n1`
condition not met

Same lookup for `CCCS(=O)(=O)Nc1ccc(F)c(C(=O)c2c[nH]c3ncc(-c4ccc(Cl)cc4)cc23)c1F` , please.
condition not met

Item: Nc1ccn([C@@H]2O[C@H](CO)[C@@H](O)C2(F)F)c(=O)n1 [gemcitabine, reference compound]
condition met

// repeat for `COc1cc2ncnc(Nc3ccc(F)c(Cl)c3)c2cc1OCCCN1CCOCC1` and report
condition met

Can you handle Cc1ccc(Nc2nccc(N(C)c3ccc4c(C)n(C)nc4c3)n2)cc1S(N)(=O)=O [Pazopanib hydrochloride] next?
condition not met

Can you check `CS(=O)(=O)CCNCc1ccc(-c2ccc3ncnc(Nc4ccc(OCc5cccc(F)c5)c(Cl)c4)c3c2)o1` next?
condition met

Field entry: `C[C@]12CC[C@@H]3c4ccc(OC(=O)N(CCCl)CCCl)cc4CC[C@H]3[C@@H]1CC[C@@H]2O`
condition met

Follow-up item: `O=C1c2c(O)ccc(O)c2C(=O)c2c(NCCNCCO)ccc(NCCNCCO)c21`
condition met

# iterate: `OC[C@H]1O[C@@H](n2cnc3c2NC=NC[C@H]3O)C[C@@H]1O`
condition not met

Do the same for Nc1ccn([C@@H]2O[C@H](CO)[C@@H](O)[C@@H]2O)c(=O)n1 [Cytarabine hydrochloride] please
condition met

---

Tested on: HT29 RAMS11 overexpressing cells
experiment_summary: High-throughput viability assay (resazurin), 119 FDA-approved anticancer drugs, RAMS11 overexpressing cells (Clone1, Clone2)
conditions_used: OE1 (RAMS11 overexpression clone 1), 1 uM drug, 72 h, vs empty vector control
Where a name gives a salt, the structure may show the parent alone.
// NB: equality with 1 counts as Criterion not met; only Viability Fold Change strictly below is Criterion met

Item CC(=O)O[C@]1(C(C)=O)CC[C@H]2[C@@H]3C=C(C)C4=CC(=O)CC[C@]4(C)[C@H]3CC[C@@]21C [Megestrol acetate] : Viability Fold Change beneath 1, strictly?
Criterion not met

Cool, now `Nc1nc2nc[nH]c2c(=S)[nH]1`
Criterion met

CN(Cc1cnc2nc(N)nc(N)c2n1)c1ccc(C(=O)N[C@@H](CCC(=O)O)C(=O)O)cc1 [Methotrexate] , same question.
Criterion met

Thanks! And Nc1nc2[nH]cc(CCc3ccc(C(=O)N[C@@H](CCC(=O)O)C(=O)O)cc3)c2c(=O)[nH]1 [Pemetrexed disodium salt] ?
Criterion met

Similarly, `CC(C)C[C@H](NC(=O)[C@H](CCc1ccccc1)NC(=O)CN1CCOCC1)C(=O)N[C@@H](Cc1ccccc1)C(=O)N[C@@H](CC(C)C)C(=O)[C@@]1(C)CO1` ?
Criterion not met
